# Study target: CLK1 (Homo sapiens);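 further: compound tested at 10 µM with 2 µM protein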
# Construct: purchased in-house DSF panel (SGC Frankfurt)
# Sequence (P49759 148-484): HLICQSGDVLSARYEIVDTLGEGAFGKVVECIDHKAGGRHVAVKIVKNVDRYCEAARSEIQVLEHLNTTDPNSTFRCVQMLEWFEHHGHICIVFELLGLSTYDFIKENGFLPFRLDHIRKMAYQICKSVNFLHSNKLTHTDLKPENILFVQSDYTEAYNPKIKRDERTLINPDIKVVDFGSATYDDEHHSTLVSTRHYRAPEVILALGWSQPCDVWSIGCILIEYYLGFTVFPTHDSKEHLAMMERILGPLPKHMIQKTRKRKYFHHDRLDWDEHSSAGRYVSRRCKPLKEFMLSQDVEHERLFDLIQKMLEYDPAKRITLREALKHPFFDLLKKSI
# Assay info: DSF
# Type: binding
Endpoint label: ΔTm CLK1 (°C)
Express your answer in °C, writing the number without its unit.

Consider the worked cases shown below.
# Compound, Unit text, ΔTm CLK1
measured = [
    ("COC(=O)c1cc(Nc2ccnc(NCCOCCNC(=O)OC(C)(C)C)n2)[nH]n1 [21d]", "°C", 1.8),
    ("N#CCc1ccc(Nc2nccc(Nc3cc(C4CC4)[nH]n3)n2)cc1 [compound 1, reference compound]", "°C", 12.2),
]

Determine from records and report ΔTm CLK1 for CC(C)(C)OC(=O)Nc1ccc(CNc2nccc(Nc3cc(C(=O)OC(C)(C)C)[nH]n3)n2)cc1 [43d]
-0.5

Determine from records and report ΔTm CLK1 for CC(C)OC(=O)c1cc(Nc2ccnc(NCc3ccc(NC(=O)OC(C)(C)C)cc3)n2)n[nH]1 [42d]
0.0

Determine from records and report ΔTm CLK1 for COC(=O)c1cc(Nc2ccnc(NCc3ccc(NC(=O)OC(C)(C)C)cc3)n2)[nH]n1 [21i]
1.3

Cited source: paper PMC9736855
